Assay: Cytotoxicity against human Huh7.5 cells infected with Hepatitis C virus J6/JFH assessed as effect on cell viability after 72 hrs by Alamarblue assay
Assay type: cell-based
Details: huh-7, 72 h
ASSAY METRIC: CC50 (µM)
All answers are understood in µM, so give the number only.

Record summary for COc1cc(-c2cnc3c(N4CCOCC4)snc3c2)cc(OC)c1OC : reported CC50 = 23.3

* * *

Biological target: Platelet-derived growth factor receptor alpha (Homo sapiens, UniProt P16234)
Sequence (P16234 whole entry): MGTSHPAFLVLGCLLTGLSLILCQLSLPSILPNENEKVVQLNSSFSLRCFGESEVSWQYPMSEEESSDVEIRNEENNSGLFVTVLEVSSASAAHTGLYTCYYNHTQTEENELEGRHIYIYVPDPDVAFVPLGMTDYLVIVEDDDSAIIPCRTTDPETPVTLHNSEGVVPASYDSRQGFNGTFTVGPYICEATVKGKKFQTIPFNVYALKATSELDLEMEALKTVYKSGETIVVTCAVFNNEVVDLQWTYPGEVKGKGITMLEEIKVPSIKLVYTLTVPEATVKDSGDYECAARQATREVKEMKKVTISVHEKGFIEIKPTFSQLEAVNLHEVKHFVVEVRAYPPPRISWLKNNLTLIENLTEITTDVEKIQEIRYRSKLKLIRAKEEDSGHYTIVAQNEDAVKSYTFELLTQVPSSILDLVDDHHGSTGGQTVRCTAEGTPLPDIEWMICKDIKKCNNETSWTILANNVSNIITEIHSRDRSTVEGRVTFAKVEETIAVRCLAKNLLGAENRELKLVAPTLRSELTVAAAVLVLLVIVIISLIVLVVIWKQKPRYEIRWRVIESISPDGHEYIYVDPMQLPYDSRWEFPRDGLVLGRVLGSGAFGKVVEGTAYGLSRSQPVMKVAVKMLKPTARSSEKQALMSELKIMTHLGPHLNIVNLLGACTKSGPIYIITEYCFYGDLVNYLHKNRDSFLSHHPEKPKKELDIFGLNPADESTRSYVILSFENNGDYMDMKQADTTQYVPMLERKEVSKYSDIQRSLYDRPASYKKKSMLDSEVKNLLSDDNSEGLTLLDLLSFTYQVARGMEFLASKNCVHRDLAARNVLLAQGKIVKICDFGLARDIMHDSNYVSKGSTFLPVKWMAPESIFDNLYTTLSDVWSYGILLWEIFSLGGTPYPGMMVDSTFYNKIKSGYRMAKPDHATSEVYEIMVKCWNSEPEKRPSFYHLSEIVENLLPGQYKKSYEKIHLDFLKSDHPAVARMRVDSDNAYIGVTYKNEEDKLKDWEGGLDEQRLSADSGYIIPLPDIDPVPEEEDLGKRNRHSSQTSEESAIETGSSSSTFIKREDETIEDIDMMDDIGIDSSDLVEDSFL
ASSAY METRIC: pKd
// scale note: pKd = -log10(conc_M); give the bare number

Measured on Platelet-derived growth factor receptor alpha (Homo sapiens, UniProt P16234), COc1cc(-c2cnc3c(N4CCOCC4)snc3c2)cc(OC)c1OC has a documented pKd of 6.66

* * *

Molecular target: Platelet-derived growth factor receptor beta (Homo sapiens, UniProt P09619)
Sequence (P09619 whole entry): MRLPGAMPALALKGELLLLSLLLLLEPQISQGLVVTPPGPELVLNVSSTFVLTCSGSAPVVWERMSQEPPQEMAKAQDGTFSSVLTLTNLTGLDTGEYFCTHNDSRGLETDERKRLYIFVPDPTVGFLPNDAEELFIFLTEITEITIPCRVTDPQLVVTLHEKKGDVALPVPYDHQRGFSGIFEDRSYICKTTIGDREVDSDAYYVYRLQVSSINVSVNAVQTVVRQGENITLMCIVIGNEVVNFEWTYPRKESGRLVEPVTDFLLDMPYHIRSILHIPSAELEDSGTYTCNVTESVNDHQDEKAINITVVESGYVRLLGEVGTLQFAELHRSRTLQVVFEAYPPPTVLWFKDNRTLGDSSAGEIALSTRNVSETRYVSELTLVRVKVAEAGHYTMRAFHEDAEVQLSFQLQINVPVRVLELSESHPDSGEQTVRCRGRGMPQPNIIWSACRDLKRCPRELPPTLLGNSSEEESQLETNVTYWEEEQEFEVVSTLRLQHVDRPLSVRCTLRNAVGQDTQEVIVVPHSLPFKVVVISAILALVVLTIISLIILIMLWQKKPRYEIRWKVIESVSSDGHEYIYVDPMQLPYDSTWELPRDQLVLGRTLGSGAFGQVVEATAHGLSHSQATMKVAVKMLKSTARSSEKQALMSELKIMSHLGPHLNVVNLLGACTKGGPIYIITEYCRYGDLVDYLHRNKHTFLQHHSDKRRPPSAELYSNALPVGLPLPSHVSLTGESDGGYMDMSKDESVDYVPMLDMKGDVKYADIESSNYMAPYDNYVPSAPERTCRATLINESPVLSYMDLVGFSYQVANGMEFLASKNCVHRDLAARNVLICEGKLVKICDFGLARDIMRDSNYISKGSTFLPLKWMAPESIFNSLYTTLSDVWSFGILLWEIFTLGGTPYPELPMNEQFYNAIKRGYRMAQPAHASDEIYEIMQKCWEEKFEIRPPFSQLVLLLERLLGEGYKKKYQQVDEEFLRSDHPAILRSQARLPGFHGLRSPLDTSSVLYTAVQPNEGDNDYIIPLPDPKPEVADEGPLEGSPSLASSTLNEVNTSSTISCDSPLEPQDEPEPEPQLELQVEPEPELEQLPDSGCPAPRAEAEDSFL
ASSAY METRIC: Kd (µM)
The response must be a number in µM with no trailing unit.

Observed Kd, Platelet-derived growth factor receptor beta (Homo sapiens, UniProt P09619), COc1cc(-c2cnc3c(N4CCOCC4)snc3c2)cc(OC)c1OC : 0.07

* * *

Molecular target: Cyclin-G-associated kinase (Homo sapiens, UniProt O14976)
Sequence (O14976 whole entry): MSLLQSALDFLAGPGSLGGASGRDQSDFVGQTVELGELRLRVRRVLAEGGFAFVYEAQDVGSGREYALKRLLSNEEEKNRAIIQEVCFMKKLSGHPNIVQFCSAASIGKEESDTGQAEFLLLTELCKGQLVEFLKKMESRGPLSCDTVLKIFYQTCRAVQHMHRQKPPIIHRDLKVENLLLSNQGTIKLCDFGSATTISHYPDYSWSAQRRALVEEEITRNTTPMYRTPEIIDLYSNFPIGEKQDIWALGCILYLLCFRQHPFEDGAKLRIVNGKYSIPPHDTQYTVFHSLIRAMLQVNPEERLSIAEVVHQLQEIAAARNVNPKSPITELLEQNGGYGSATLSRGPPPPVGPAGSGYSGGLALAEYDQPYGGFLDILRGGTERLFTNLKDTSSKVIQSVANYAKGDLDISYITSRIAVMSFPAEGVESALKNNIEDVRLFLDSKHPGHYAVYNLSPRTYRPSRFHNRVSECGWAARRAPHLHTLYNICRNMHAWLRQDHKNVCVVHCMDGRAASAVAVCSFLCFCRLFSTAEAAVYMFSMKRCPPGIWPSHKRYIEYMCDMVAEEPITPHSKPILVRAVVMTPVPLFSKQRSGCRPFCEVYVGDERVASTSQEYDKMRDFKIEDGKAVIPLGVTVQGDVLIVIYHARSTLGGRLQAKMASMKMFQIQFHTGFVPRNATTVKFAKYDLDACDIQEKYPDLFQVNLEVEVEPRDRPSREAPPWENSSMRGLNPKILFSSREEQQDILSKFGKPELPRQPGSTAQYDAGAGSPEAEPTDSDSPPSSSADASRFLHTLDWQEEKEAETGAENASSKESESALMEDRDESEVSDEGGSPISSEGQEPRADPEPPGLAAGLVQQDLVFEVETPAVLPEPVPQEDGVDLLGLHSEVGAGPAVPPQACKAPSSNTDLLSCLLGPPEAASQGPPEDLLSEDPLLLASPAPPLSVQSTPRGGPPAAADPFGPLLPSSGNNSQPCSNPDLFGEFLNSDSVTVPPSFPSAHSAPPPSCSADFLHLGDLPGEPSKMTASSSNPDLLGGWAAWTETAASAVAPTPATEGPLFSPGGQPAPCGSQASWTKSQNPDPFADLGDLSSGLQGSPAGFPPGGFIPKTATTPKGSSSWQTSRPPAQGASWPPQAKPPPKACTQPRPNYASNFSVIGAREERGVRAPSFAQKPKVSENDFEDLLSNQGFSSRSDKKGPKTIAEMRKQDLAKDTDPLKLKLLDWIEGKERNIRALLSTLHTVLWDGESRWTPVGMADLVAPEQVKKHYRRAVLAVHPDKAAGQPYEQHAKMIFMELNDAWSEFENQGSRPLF
ASSAY METRIC: pKd
Just the number, please; pKd means minus log10 of the concentration in mol/L.

Some solved cases for reference:
[
  {
    "SMILES RECORD": "COc1ccc(OC)c(-c2cnc3c(N4CCOCC4)snc3c2)c1",
    "TARGET OR TEST SYSTEM": "Cyclin-G-associated kinase (Homo sapiens, UniProt O14976)",
    "ASSAY METRIC": "pKd",
    "EXPERIMENTAL VALUE": 6.89
  },
  {
    "SMILES RECORD": "COc1cc(OC)cc(-c2cnc3c(N4CCOCC4)snc3c2)c1",
    "TARGET OR TEST SYSTEM": "Cyclin-G-associated kinase (Homo sapiens, UniProt O14976)",
    "ASSAY METRIC": "pKd",
    "EXPERIMENTAL VALUE": 7.14
  }
]

Now look at this entry.
The reported pKd value, Cyclin-G-associated kinase (Homo sapiens, UniProt O14976), for COc1ccc(-c2cnc3c(N4CCOCC4)snc3c2)cc1OC reads 7.28

FYI, the data here is from ChEMBL document CHEMBL3425437.
